Recorded GI50 by entry
Tested on: KM12
Assay: NCI tumour cell line growth inhibition, 48 h
The source made the active and inactive calls. Cut-off read from the data, not from the text of the source: active = GI50 up to about 1.1 µM and inactive = higher. Numbered stars: 1 amine (or outer) side, 2 acyl side, 3 side chain; on linkers, the order of the positions; unused ones are H or OH. Square brackets hold non-standard residues; d marks the D form. Peptide text beside a SMILES is read from it. * marks the point of attachment. X30 = CC(=O)N(C)SCC(N[*:1])C(=O)[*:2]; Cbz = O=C(OCc1ccccc1)*; Bn = c1ccc(C*)cc1

Reference set, count: 5
[
  {
    "molecule": "O=C1c2cccnc2S(=O)(=O)N1c1ccc(Br)cc1",
    "GI50": "> 100 µM (inactive)"
  },
  {
    "molecule": "Clc1ncnc(Cl)c1Cl",
    "GI50": "> 100 µM (inactive)"
  },
  {
    "molecule": "Cc1ccc(C)n1-n1c(Cc2ccccc2)n[nH]c1=O",
    "GI50": "> 100 µM (inactive)"
  },
  {
    "molecule": "O=S(=O)(c1ccc(I)cc1)N(c1ccccc1)S(=O)(=O)C(F)(F)C(F)(F)C(F)(F)C(F)(F)F",
    "GI50": "18.8 µM (inactive)"
  },
  {
    "molecule": "C=C(C)[C@@H]1C[C@H]2O[C@](O)(C(=C)CC(=O)/C=C(/C)C[C@@H]3OC(=O)[C@]24O[C@@H]34)[C@H]1O",
    "GI50": "> 100 µM (inactive)"
  }
]

Task: Quick one: GI50 for "OCc1c[te]c(-c2ccccc2)c1" ?
Result: 80.5 µM (inactive)

Task: Consider the molecule shown here: CC(=O)C(C(=O)c1ccc(C)cc1)[C@H]1OC(C)(C)O[C@H]1[C@H]1COC(C)(C)O1 (some centres undefined) What is its recorded GI50?
Result: 8.75 µM (inactive)

Task: For the molecule "CC(C)/C(Cl)=N/OC(=O)Nc1cccc(C(F)(F)F)c1" , what GI50 is on record?
Result: 15.3 µM (inactive)

Task: GI50 for "CN(C)c1ncc(-c2c[nH]c3ccccc23)nc1-c1c[nH]c2ccccc12" ?
Result: 2.19 µM (inactive)

Task: For the molecule shown here, CCOC(=O)c1c(N)sc2c1C(C)(C(=O)OCC)CC2 (centres undefined) , give the reported GI50.
Result: > 100 µM (inactive)

Task: Field request: GI50 | item: "O=[N+]([O-])c1cccc(S(=O)(=O)N/N=C/c2cc(I)cc([N+](=O)[O-])c2O)c1"
Result: 32.4 µM (inactive)

Task: I would be grateful if you could share the reported GI50 for O=C1NCC2(CCN(CC3COc4ccccc4O3)CC2)N1c1ccccc1 (centres undefined) .
Result: > 100 µM (inactive)

Task: For "COc1ccc(C)cc1Nc1nnc(-c2ccccc2N)s1" , what is its reported GI50?
Result: 28.4 µM (inactive)

Task: Need GI50 of "CN(CC#N)C(=O)Cc1ccc([N+](=O)[O-])cc1" , thanks.
Result: > 10 µM (inactive)

Task: Returns the measured GI50 for the input molecule. Input: "c1ccc2c(c1)Sc1nccc3ccnc-2c13"
Result: 61 µM (inactive)

Task: Please look up its GI50: O=C1OC(C2Cc3cc4c(cc3C2=O)CCC4)c2ccccc21 (centres undefined)
Result: 35.9 µM (inactive)

Task: Fill in the blank: the reported GI50 of CC(=O)N(C)SCC(NC(=O)C(Cc1ccccc1)NC(=O)OCc1ccccc1)C(=O)NC(Cc1ccccc1)C(=O)NC(Cc1c[nH]c2ccccc12)C(=O)NC(CCCCNC(=O)OCc1ccccc1)C(=O)NC(C(=O)NC(CSN(C)C(C)=O)C(=O)NC(C(N)=O)C(C)OCc1ccccc1)C(C)OCc1ccccc1 (centres undefined) (Cbz-F[X30]FWK(Cbz)T(Bn)[X30]T(Bn)-NH2; configuration not given here) is ____.
Result: 40.9 µM (inactive)

Task: Look at this molecule and give its reported GI50. FC1C2=C(SC1(F)F)C1CCC2C1 (centres undefined)
Result: > 100 µM (inactive)

Task: Which GI50 value belongs to C[N+](C)(C)c1ncnc2c1ncn2C1CCCO1 (centres undefined) ?
Result: > 100 µM (inactive)
